# credit: patent US4107424A

- Tested on: Escherichia coli K-12 JR 66/W 677
- Assay Procedure: Minimal inhibitory concentration, agar dilution streak method
- Type: cell-based
- Experimental Parameters: Escherichia coli, 18 h, read-out: minimum inhibitory concentrations
- Experimental: *Agar Agar dilution streak method (nutrient agar, 37° C, 18 hours) *Agar dilution streak method (nutrient agar, 37° C, 18 hours).
Labelling: MIC reported below 6 µg/mL becomes t; at or above becomes f.

Example results:
| Given Smiles | Discrete Label |
| --- | --- |
| NC[C@H]1O[C@H](O[C@H]2[C@H](O)[C@@H](O[C@H]3O[C@H](CO)[C@@H](O)[C@H](N)[C@H]3O)[C@H](N)C[C@@H]2N)[C@H](N)C[C@@H]1O | f |
| CNC[C@H]1O[C@H](O[C@H]2[C@H](O)[C@@H](O[C@H]3O[C@H](CO)[C@@H](O)[C@H](N)[C@H]3O)[C@H](N)C[C@@H]2N)[C@H](N)C[C@@H]1O | f |

For NC[C@H]1O[C@H](O[C@H]2[C@H](O)[C@@H](O)[C@H](N)C[C@@H]2N)[C@H](N)C[C@@H]1O , is the recorded MIC below the cut-off of 6 µg/mL?
f

For NCC[C@H](O)C(=O)N[C@@H]1C[C@H](N)[C@@H](O[C@H]2O[C@H](CN)CC[C@H]2N)[C@H](O)[C@H]1O[C@H]1O[C@H](CO)[C@@H](O)[C@H](N)[C@H]1O , is the recorded MIC below the cut-off of 6 µg/mL?
t

###

Consider the following MIC values measured on Proteus rettgeri GN 466.
Just the number in µg/mL, nothing appended.

| Given Smiles | Readout Value |
| --- | --- |
| NC[C@@H]1CC[C@@H](N)[C@@H](O[C@H]2[C@H](O[C@@H]3O[C@H](CO)[C@@H](O)[C@H]3O)[C@@H](O)[C@H](N)C[C@@H]2N)O1 | 6.25 |
| NCC[C@H](O)C(=O)N[C@@H]1C[C@H](N)[C@@H](O[C@H]2O[C@H](CN)CC[C@H]2N)[C@H](O[C@@H]2O[C@H](CO)[C@@H](O)[C@H]2O)[C@H]1O | 3.12 |
| NCC[C@H](O)C(=O)N[C@@H]1C[C@H](N)[C@@H](O[C@H]2O[C@H](CN)[C@@H](O)[C@H](O)[C@H]2N)[C@H](O[C@@H]2O[C@H](CO)[C@@H](O)[C@H]2O)[C@H]1O | 3.12 |
| NC[C@@H]1CC[C@@H](N)[C@@H](O[C@H]2[C@H](O)[C@@H](O)[C@H](N)C[C@@H]2N)O1 | 25 |
| NC[C@H]1O[C@H](O[C@H]2[C@H](O[C@@H]3O[C@H](CO)[C@@H](O)[C@H]3O)[C@@H](O)[C@H](N)C[C@@H]2N)[C@H](N)[C@@H](O)[C@@H]1O | 6.25 |
| NC[C@H]1O[C@H](O[C@H]2[C@H](O)[C@@H](O)[C@H](N)C[C@@H]2N)[C@H](N)[C@@H](O)[C@@H]1O | 25 |

Query molecule follows.
Value (MIC, Proteus rettgeri GN 466) for record NCC[C@H](O)C(=O)N[C@@H]1C[C@H](N)[C@@H](O[C@H]2O[C@H](CN)CC[C@H]2N)[C@H](O)[C@H]1O = 12.5

###

Listing of recorded MIC by entry.
- Tested on: Escherichia coli K-12 JR 66/W 677
- Assay Procedure: Minimal inhibitory concentration, agar dilution streak method
- Type: cell-based
- Experimental Parameters: Escherichia coli, 18 h, read-out: Minimal inhibitory concentration
Just the number in µg/mL, nothing appended.

Before answering, review these 3 worked examples.
| Compound | System | Readout Kind | Readout Value |
| --- | --- | --- | --- |
| NCC[C@H](O)C(=O)N[C@@H]1C[C@H](N)[C@@H](O[C@H]2O[C@H](CN)[C@@H](O)[C@H](O)[C@H]2N)[C@H](O)[C@H]1O[C@H]1O[C@H](CO)[C@@H](O)[C@H](N)[C@H]1O [AHB-kanamycin B] | Escherichia coli K-12 JR 66/W 677 | MIC | 3.12 |
| NC[C@@H]1CC[C@@H](N)[C@@H](O[C@H]2[C@H](O[C@@H]3O[C@H](CO)[C@@H](O)[C@H]3O)[C@@H](O)[C@H](N)C[C@@H]2N)O1 [3',4'-dideoxyribostamycin] | Escherichia coli K-12 JR 66/W 677 | MIC | 6.25 |
| NCC[C@H](O)C(=O)N[C@@H]1C[C@H](N)[C@@H](O[C@H]2O[C@H](CN)CC[C@H]2N)[C@H](O)[C@H]1O [AHB-dideoxyneamine] | Escherichia coli K-12 JR 66/W 677 | MIC | 12.5 |

Query compound follows.
Value (MIC, Escherichia coli K-12 JR 66/W 677) for record NC[C@@H]1CC[C@@H](N)[C@@H](O[C@H]2[C@H](O)[C@@H](O)[C@H](N)C[C@@H]2N)O1 [3',4'-dideoxyneamine] = 25

###

- Test system: Pseudomonas aeruginosa No.12
- Assay Procedure: Minimal inhibitory concentration, agar dilution streak method
- Format: cell-based
- Experimental Parameters: nutrient agar, 37° C, 18 hours, read-out: minimum inhibitory concentrations
Readout Kind: log10(MIC) (log10 of the value in µg/mL)
Scale: decimal log of MIC, MIC in µg/mL.

Before answering, review these 4 worked examples.
| Given Smiles | log10(MIC) |
| --- | --- |
| NC[C@H]1O[C@H](O[C@H]2[C@H](O)[C@@H](O[C@H]3O[C@H](CO)[C@@H](O)[C@H](N)[C@H]3O)[C@H](N)C[C@@H]2N)[C@H](O)[C@@H](O)[C@@H]1O | 1.70 |
| NCC[C@H](O)C(=O)N[C@@H]1C[C@H](N)[C@@H](O[C@H]2O[C@H](CN)[C@@H](O)C[C@H]2N)[C@H](O)[C@H]1O | 0.80 |
| NCC[C@H](O)C(=O)N[C@@H]1C[C@H](N)[C@@H](O[C@H]2O[C@H](CN)[C@@H](O)C[C@H]2N)[C@H](O[C@@H]2O[C@H](CO)[C@@H](O)[C@H]2O)[C@H]1O | 0.49 |
| NCC[C@H](O)C(=O)N[C@@H]1C[C@H](N)[C@@H](O[C@H]2O[C@H](CN)CC[C@H]2N)[C@H](O)[C@H]1O[C@H]1O[C@H](CO)[C@@H](O)[C@H](N)[C@H]1O | 0.19 |

// log10(MIC) lookup, compound = NC[C@@H]1CC[C@@H](N)[C@@H](O[C@H]2[C@H](O)[C@@H](O[C@H]3O[C@H](CO)[C@@H](O)[C@H](N)[C@H]3O)[C@H](N)C[C@@H]2N)O1 , result: 0.49

// log10(MIC) lookup, compound = CNC[C@H]1O[C@H](O[C@H]2[C@H](O)[C@@H](O[C@H]3O[C@H](CO)[C@@H](O)[C@H](N)[C@H]3O)[C@H](NC(=O)[C@@H](O)CCN)C[C@@H]2N)[C@H](N)C[C@@H]1O , result: -0.11

// log10(MIC) lookup, compound = NCC[C@H](O)C(=O)N[C@@H]1C[C@H](N)[C@@H](O[C@H]2O[C@H](CN)[C@@H](O)C[C@H]2N)[C@H](O)[C@H]1O[C@H]1O[C@H](CO)[C@@H](O)[C@H](N)[C@H]1O , result: -0.11

###

Listing of recorded MIC by entry.
- Test system: Escherichia coli K-12 LA 290 R 56
- Assay Procedure: Minimal inhibitory concentration, agar dilution streak method
- Type: cell-based
- Experimental Parameters: 18 h, read-out: Minimal inhibitory concentration
- Experimental: *Agar Agar dilution streak method (nutrient agar, 37° C, 18 hours) *Agar dilution streak method (nutrient agar, 37° C, 18 hours).
Just the number in µg/mL, nothing appended.

| Given Smiles | System | Output Unit | MIC |
| --- | --- | --- | --- |
| NCC[C@H](O)C(=O)N[C@@H]1C[C@H](N)[C@@H](O[C@H]2O[C@H](CN)CC[C@H]2N)[C@H](O)[C@H]1O | Escherichia coli K-12 LA 290 R 56 | µg/mL | 3.12 |
| NC[C@@H]1CC[C@@H](N)[C@@H](O[C@H]2[C@H](O[C@@H]3O[C@H](CO)[C@@H](O)[C@H]3O)[C@@H](O)[C@H](N)C[C@@H]2N)O1 | Escherichia coli K-12 LA 290 R 56 | µg/mL | 1.56 |
| NCC[C@H](O)C(=O)N[C@@H]1C[C@H](N)[C@@H](O[C@H]2O[C@H](CN)[C@@H](O)[C@H](O)[C@H]2N)[C@H](O)[C@H]1O[C@H]1O[C@H](CO)[C@@H](O)[C@H](N)[C@H]1O | Escherichia coli K-12 LA 290 R 56 | µg/mL | 0.39 |

Query molecule follows.
// MIC lookup, molecule = NCC[C@H](O)C(=O)N[C@@H]1C[C@H](N)[C@@H](O[C@H]2O[C@H](CN)[C@@H](O)[C@H](O)[C@H]2N)[C@H](O[C@@H]2O[C@H](CO)[C@@H](O)[C@H]2O)[C@H]1O , result: 0.78
